- Protocol Summary: Aqueous solubility of the compound
- Type: physicochemical
- Run Conditions: water
Measurement Kind: solubility

Given item C=C(NC(=O)c1csc(-c2nc3c(cc2O)-c2nc(cs2)C(=O)N[C@@H]([C@@H](C)O)C(=O)N/C(=C(\C)OC)c2nc(cs2)C(=O)N[C@@H]2c4nc(cs4)C(=O)N[C@@H](COC(=O)c4c5c6c(cccc6n4O)COC(=O)[C@@H](O[C@H]4C[C@]6(C)OC(C)N(C)[C@@H]6[C@H](C)O4)[C@H]2OC5)c2nc-3cs2)n1)C(N)=O (stereo partly specified) , the value recorded as its solubility is < 0.1 mg/mL
